The following molecules are listed with their measured Ki values.
Target: CDK7/cyclinH/MAT1 trimeric complex (Homo sapiens)
Sequence (P50613 whole entry): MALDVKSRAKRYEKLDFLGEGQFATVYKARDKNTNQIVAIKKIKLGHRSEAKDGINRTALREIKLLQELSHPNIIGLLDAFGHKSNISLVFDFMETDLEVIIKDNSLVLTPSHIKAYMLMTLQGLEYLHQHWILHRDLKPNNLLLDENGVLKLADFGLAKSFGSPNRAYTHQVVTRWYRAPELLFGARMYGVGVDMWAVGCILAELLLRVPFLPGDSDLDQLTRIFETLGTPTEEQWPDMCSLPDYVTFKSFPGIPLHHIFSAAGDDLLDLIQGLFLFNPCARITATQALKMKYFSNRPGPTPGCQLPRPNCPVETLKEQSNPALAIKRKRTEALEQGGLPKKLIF
Sequence (P51946 whole entry partner): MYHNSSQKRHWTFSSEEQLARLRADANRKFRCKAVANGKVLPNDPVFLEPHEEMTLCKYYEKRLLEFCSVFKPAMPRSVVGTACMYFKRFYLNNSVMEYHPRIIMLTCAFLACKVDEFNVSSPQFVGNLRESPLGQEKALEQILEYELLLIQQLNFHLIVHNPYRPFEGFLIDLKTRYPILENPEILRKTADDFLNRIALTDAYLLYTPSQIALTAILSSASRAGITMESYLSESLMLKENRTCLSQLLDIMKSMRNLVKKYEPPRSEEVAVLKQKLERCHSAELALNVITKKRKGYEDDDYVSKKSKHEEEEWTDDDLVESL
Sequence (P51948 whole entry partner): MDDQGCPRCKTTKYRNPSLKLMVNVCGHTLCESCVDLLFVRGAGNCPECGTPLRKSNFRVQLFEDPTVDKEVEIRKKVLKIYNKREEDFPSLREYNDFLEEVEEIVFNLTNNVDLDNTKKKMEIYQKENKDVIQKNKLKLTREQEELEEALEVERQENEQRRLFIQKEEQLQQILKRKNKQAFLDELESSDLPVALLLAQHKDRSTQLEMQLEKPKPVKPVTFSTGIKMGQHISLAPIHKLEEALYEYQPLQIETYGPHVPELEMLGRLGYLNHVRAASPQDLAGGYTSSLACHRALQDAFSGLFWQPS
Experiment: In vitro CDK7 assay, potency of irreversible covalent inhibitors (kinact/KI), coupled PK/LDH ADP readout at 340 nm
Conditions: CDK7 (20 nM enz.) (KI, μM), 20 nM enzyme

molecule | readout-units | Ki
C=CC(=O)N1CC(N2CC[C@@H](c3cc4c(c(C)n3)OCc3c(N5CCOCC5)ccnc3N4)N(C)CC2)C1 (single isomer, unassigned) | µM | 0.245
CC#CC(=O)N1CCC(N2CC(c3cc4c(c(CCC)n3)OCc3c(N5CCOCC5)ccnc3N4)C2)CC1 | µM | 0.036
C=CC(=O)N1CC[C@@H](N2CC(c3cc4c(c(C)n3)O[C@@H](C)c3c(N5CCOCC5)ccnc3N4)C2)C1 (single isomer, unassigned) | µM | 24.6

Every entry's value here was drawn from patent US20240254138A1.
